Test system: UACC-62 melanoma
Experiment: NCI tumour cell line growth inhibition, 48 h
Below, each entry is listed with its recorded TGI.

COMPOUND	READOUT_RELATION	TGI [µM]
[N-]=[N+]=Nc1ccc2c(c1)Sc1ccccc1N2CCCCN1CCN(Cc2ccc(C(=O)c3ccccc3)cc2)CC1	=	6.1
COC(=O)CCC1(NS(=O)(=O)c2ccc(C)cc2)CCC(C(C)(C)C)CC1 (stereo not drawn)	=	26.4
O=C1[C@H]2ON(c3ccccc3)C(c3ccc(Cl)cc3Cl)[C@H]2C(=O)N1c1ccc(Cc2ccc(N3C(=O)[C@@H]4ON(c5ccccc5)C(c5ccc(Cl)cc5Cl)[C@@H]4C3=O)cc2)cc1 (stereo partly drawn)	>	100
CC(=O)OC1Oc2ccc(C)cc2-c2oc(=O)c(-c3cc4ccccc4oc3=O)cc21 (stereo not drawn)	=	9.19
COc1cccc2c1C(=O)c1c(O)c3c(c(O)c1C2=O)CC(O)(C(=O)CO)CC3OC1CC(N)C(I)C(C)O1 (stereo not drawn)	=	7.43
COCOc1cc(OC)ccc1C/C=N/O	>	100
COC(=O)[C@]12CC[C@H]3CN(C(=O)OCc4ccccc4)[C@H]([C@H]31)[C@H](C(=O)OCC[Si](C)(C)C)N2S(=O)(=O)c1ccc(C)cc1	>	100
Clc1ccc(C2=NOC(C3CCCCC3)C2)cc1 (stereo not drawn)	>	100

Numbers sourced from PubChem BioAssay (NCI).
